Catalogue of switch fluorescence ratio readings, one per entry.
- System: ATP;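 note: ATP exposure 15 min at 22 °C before imaging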
- PROTOCOL DETAILS: switch fluorescence ratio, 500 uM ATP over buffer (Cy3 cluster intensity, sum of 5 cycles each) (fold (ratio)); higher = stronger signal-on switching upon ATP binding; sequences stand for … in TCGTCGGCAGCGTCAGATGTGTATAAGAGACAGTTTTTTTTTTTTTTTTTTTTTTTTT…TC
- CONDITION SUMMARY: aptamer strand: ATP DNA aptamer (quencher-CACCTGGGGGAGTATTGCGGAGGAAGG + anchor), 100 nM annealed; ATP concentration: 500 uM
QUANTITY: switch fluorescence ratio

sequence_text=GAGTGGAATA test_system=ATP reported_value=1
sequence_text=AGTAGGCGCT test_system=ATP reported_value=1.01
sequence_text=ATCATTTGGG test_system=ATP reported_value=0.997
sequence_text=CTAAGGCCTG test_system=ATP reported_value=0.97
sequence_text=CGAAGGTTTG test_system=ATP reported_value=0.945
sequence_text=TAAGGGTGTA test_system=ATP reported_value=0.993
sequence_text=GATGAAGCGA test_system=ATP reported_value=1.19
sequence_text=AGTGCGATGT test_system=ATP reported_value=0.988
sequence_text=ATGCTTTGGG test_system=ATP reported_value=1.04
sequence_text=TTAATCGGGG test_system=ATP reported_value=1.05
sequence_text=TAATTAGTTA test_system=ATP reported_value=0.992
sequence_text=GGAACGAAAG test_system=ATP reported_value=0.995
sequence_text=GAGGGGTACT test_system=ATP reported_value=1.02
sequence_text=GGGACTCCAA test_system=ATP reported_value=1.24
sequence_text=ACGTTTTAAG test_system=ATP reported_value=1.01
sequence_text=TTGGAGGAAC test_system=ATP reported_value=1.07
sequence_text=GAACGTTGGG test_system=ATP reported_value=0.993
sequence_text=TGAAATGGTT test_system=ATP reported_value=1.01
sequence_text=GGTTGCACAG test_system=ATP reported_value=1
sequence_text=GACCTTGGGA test_system=ATP reported_value=0.992
sequence_text=CCGTTTAGGG test_system=ATP reported_value=0.999
sequence_text=TAATGGGTAA test_system=ATP reported_value=1.01
sequence_text=TGCACATGGG test_system=ATP reported_value=1.02
sequence_text=TGTCTGCAGC test_system=ATP reported_value=1.02
sequence_text=CTGGAATTCA test_system=ATP reported_value=1.02
sequence_text=CTAATGACGT test_system=ATP reported_value=1.01
sequence_text=ATGATAAATT test_system=ATP reported_value=0.963
sequence_text=CTTTAACGTT test_system=ATP reported_value=0.981
sequence_text=CGTGACATTG test_system=ATP reported_value=1.01
sequence_text=GTATCCCGTG test_system=ATP reported_value=0.977
sequence_text=AGTCTTAGGG test_system=ATP reported_value=0.972
sequence_text=TTCAGGTTGG test_system=ATP reported_value=1.08
sequence_text=TACGATAGGG test_system=ATP reported_value=1.21
sequence_text=AATTTGGTAA test_system=ATP reported_value=0.999
sequence_text=GGTGTTAGTG test_system=ATP reported_value=0.977
sequence_text=TGGGTAAAGA test_system=ATP reported_value=0.981
sequence_text=TAGTGAGTAC test_system=ATP reported_value=0.93
sequence_text=GGGGGTCACT test_system=ATP reported_value=0.993
sequence_text=AGCGCGAATG test_system=ATP reported_value=1.01
sequence_text=TCTATCGTTA test_system=ATP reported_value=1.04
sequence_text=GGGGTAAGTA test_system=ATP reported_value=0.986
sequence_text=CAGGAGGAAT test_system=ATP reported_value=1.24
sequence_text=AATTTTACGA test_system=ATP reported_value=1.04

Where do the numbers come from? From the supplement of paper PMC10126150.
